Every entry's value here was drawn from the supplement of paper PMC6897291.

tested on: RIVA; assay: growth inhibition by drug alone (1 - RLU/untreated control) (fraction); higher = stronger inhibition; settings: 10 nM; time (day): 5; 177Lu-lilotomab satetraxetan 0 ug/ml
We use -0.1 as the dividing line for growth inhibition by drug alone: on or above the line is Satisfied, below is Not satisfied.

Study these solved cases before continuing.
COMPOUND	QUALITATIVE LABEL
CN1CCN(c2cccc(Nc3nc4c(-c5ccc(S(C)(=O)=O)cc5)cccn4n3)c2)CC1	Not satisfied
O=C(/C=C/c1cccnc1)NCCCCC1CCN(C(=O)c2ccccc2)CC1	Satisfied

-- ask Kindly determine if growth inhibition by drug alone recorded for `C[C@@H]1CN(CC(=O)Nc2ccc3c(c2)Cc2cccc(-c4cc(=O)cc(N5CCOCC5)o4)c2S3)C[C@H](C)O1` is above or exactly -0.1.
-- reply Not satisfied

-- ask And then CCN(CC)C(=S)SSC(=S)N(CC)CC [Disulfiram (Antabuse)] , what is it?
-- reply Not satisfied
